tested on: A. baumannii ATCC 17978; test: Antibacterial activity in vitro, broth microdilution MIC; assay type: cell-based; details: 16–24 h at 37 °C, unit inferred
metric: MIC A. baumannii ATCC 17978

# value of MIC A. baumannii ATCC 17978, A. baumannii ATCC 17978, item `CC(C)Cn1c(NC(=O)c2cc(O)c(O)c(O)c2)nc2ccccc21` = > 64 µM

# value of MIC A. baumannii ATCC 17978, A. baumannii ATCC 17978, item `O=C(Nc1nc2ccccc2[nH]1)c1cc(O)c(O)c(O)c1` = > 64 µM

# value of MIC A. baumannii ATCC 17978, A. baumannii ATCC 17978, item CNC(C)C1CCC(N)C(OC2C(N)CC(N)C(OC3OCC(C)(O)C(NC)C3O)C2O)O1 (stereo not shown) [Gentamicin, gentamicin, reference compound] = 4 µM

# value of MIC A. baumannii ATCC 17978, A. baumannii ATCC 17978, item `Cn1c(NC(=O)c2ccc(O)cc2O)nc2cc(C#N)ccc21` = > 64 µM

---

tested on: HCT 116 (colorectal carcinoma); assay: Antiproliferative activity in vitro, MTT assay, 72 h; type: cell-based; details: Homo sapiens, 72 h incubation, '-' with footnote a = did not show biological activity due to precipitation
metric: IC50 (µM)
# output: bare number, implied unit µM

In plain terms, COc1ccc(C(=O)Nc2nc3cc(C#N)ccc3n2CC(C)C)c(O)c1 [Compound 10] has a documented IC50 of 3.9

In plain terms, CC(C)Cn1c(NC(=O)c2cc(O)c(O)c(O)c2)nc2ccccc21 [Compound 33] has a documented IC50 of 43.2

In plain terms, COc1ccc(C(=O)Nc2nc3ccccc3[nH]2)c(O)c1 [Compound 7] has a documented IC50 of 26.4

---

system: HEK 293 (human embryonic kidney); test: Antiproliferative activity in vitro, MTT assay, 72 h, non-cancerous cell line; format: cell-based; conditions: HEK293, 72 h incubation, '-' with footnote a = did not show biological activity due to precipitation
metric: log10 of IC50 (log10 of the value in µM)
Use the decimal logarithm of IC50 (µM).

In plain terms, CCCCCCn1c(NC(=O)c2cc(O)c(O)c(O)c2)nc2cc(C#N)ccc21 [Compound 37] has a documented log10 of IC50 of 1.58

In plain terms, Cn1c(NC(=O)c2ccccc2O)nc2cc(C#N)ccc21 [Compound 11] has a documented log10 of IC50 of 0.72

In plain terms, Cn1c(NC(=O)c2ccc(O)cc2O)nc2cc(C#N)ccc21 [Compound 35] has a documented log10 of IC50 of 1.53

In plain terms, CC(C)Cn1c(NC(=O)c2cc(O)c(O)c(O)c2)nc2ccccc21 [Compound 33] has a documented log10 of IC50 of 1.89

In plain terms, COc1cccc2c1C(=O)c1c(O)c3c(c(O)c1C2=O)C[C@@](O)(C(=O)CO)C[C@@H]3O[C@H]1C[C@H](N)[C@H](O)[C@H](C)O1 [Doxorubicin, doxorubicin, reference compound] has a documented log10 of IC50 of -1.70

In plain terms, COc1ccc(C(=O)Nc2nc3cc(C#N)ccc3n2CC(C)C)c(O)c1 [Compound 10] has a documented log10 of IC50 of 0.64

In plain terms, O=C(Nc1nc2ccccc2[nH]1)c1ccc(O)cc1O [Compound 31] has a documented log10 of IC50 of 1.39
